# systemTested: TRPV3-I505A (Homo sapiens, UniProt Q8NET8, I505A)
# Sequence (Q8NET8 whole entry I505A): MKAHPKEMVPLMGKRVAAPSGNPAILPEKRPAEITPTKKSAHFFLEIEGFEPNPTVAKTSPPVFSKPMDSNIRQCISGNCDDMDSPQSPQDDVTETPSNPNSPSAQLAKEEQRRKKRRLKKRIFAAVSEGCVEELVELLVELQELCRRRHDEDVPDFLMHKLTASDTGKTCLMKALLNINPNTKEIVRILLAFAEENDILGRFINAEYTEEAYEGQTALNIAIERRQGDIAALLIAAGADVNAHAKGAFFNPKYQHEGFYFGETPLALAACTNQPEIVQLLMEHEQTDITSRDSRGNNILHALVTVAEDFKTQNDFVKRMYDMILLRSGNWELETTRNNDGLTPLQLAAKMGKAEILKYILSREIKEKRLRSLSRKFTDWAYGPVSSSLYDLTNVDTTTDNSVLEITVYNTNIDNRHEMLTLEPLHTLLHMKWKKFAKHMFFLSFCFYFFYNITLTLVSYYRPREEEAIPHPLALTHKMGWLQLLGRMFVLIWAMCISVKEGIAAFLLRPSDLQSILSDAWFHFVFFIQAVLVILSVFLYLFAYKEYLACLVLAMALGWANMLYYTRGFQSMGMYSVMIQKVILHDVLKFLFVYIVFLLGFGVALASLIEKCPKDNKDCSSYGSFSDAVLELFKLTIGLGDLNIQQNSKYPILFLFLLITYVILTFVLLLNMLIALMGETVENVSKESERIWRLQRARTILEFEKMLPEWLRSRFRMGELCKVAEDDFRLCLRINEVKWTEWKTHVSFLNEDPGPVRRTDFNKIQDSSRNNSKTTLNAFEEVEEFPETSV
# experimentNotes: Whole-cell and single-channel recordings of the TRPV3-I505A mutant
quantityKind: EC50
Give the figure together with its unit, number first.

Item Cc1ccc(C(C)C)cc1O was tested on TRPV3-I505A (Homo sapiens, UniProt Q8NET8, I505A); the reported EC50 is 3.51 mM

* * *

# systemTested: TRPV3-R509A (Homo sapiens, UniProt Q8NET8, R509A)
# Sequence (Q8NET8 whole entry R509A): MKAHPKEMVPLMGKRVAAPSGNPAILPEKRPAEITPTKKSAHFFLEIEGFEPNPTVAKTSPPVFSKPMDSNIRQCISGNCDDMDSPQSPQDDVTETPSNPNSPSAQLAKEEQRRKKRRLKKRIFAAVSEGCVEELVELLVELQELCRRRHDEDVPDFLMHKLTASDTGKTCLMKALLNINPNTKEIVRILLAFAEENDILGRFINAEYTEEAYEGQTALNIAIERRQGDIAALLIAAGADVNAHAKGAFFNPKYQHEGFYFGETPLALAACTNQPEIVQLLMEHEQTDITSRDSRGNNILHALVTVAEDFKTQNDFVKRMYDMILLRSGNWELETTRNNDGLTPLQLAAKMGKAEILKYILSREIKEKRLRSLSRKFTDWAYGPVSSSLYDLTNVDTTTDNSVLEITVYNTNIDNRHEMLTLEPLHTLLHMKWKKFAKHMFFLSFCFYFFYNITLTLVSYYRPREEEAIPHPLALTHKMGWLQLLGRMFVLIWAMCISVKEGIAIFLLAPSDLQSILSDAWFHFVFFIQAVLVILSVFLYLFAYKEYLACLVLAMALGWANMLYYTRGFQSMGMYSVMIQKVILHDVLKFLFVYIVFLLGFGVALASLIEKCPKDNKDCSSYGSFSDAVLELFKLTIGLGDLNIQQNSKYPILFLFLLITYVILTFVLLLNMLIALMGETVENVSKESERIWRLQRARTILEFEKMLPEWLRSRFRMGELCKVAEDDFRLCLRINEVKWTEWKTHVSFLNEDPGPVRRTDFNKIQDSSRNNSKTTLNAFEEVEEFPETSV
# experimentNotes: Whole-cell and single-channel recordings of the TRPV3-R509A mutant
quantityKind: EC50 (µM)
Note: unit µM is implicit; provide only the numeric part.

Lab note: Cc1ccc(C(C)C)cc1O gave EC50 of 2930
